assay: Selectivity index, ratio of CC50 for African green monkey Vero cells infected with SARS-CoV-2 betaCoV/KOR/KCDC03/2020 to IC50 for SARS-CoV-2 betaCoV/KOR/KCDC03/2020
Using Ratio CC50/IC50 as the sorting value, the categories are category 1: < 2; category 2: ≥ 2 and < 3; category 3: ≥ 3

>  <MOLECULE>
O=C(CN1C(C(=O)c2ccc(F)c(Cl)c2)=C(O)c2ccc(F)cc2S1(=O)=O)Nc1cccc(Cl)c1

>  <ASSIGNED CLASS>
category 3

$$$$
>  <MOLECULE>
O=C(/C=C/N1C(C(=O)c2ccc(F)c(Cl)c2)=C(O)c2ccccc2S1(=O)=O)Nc1cccc(OC(F)(F)F)c1

>  <ASSIGNED CLASS>
category 3

$$$$
>  <MOLECULE>
COc1ccc(C(=O)C2=C(O)c3ccccc3S(=O)(=O)N2CC(=O)Nc2ccc(C(F)(F)F)cc2)cc1

>  <ASSIGNED CLASS>
category 2

$$$$

Problem: Textbook exercise: identify the category of the molecule given here, CCC(CC)COC(=O)[C@H](C)N[P@](=O)(OC[C@H]1O[C@@](C#N)(c2ccc3c(N)ncnn23)[C@H](O)[C@@H]1O)Oc1ccccc1 , according to its measured value.
Solution: category 3

Problem: What do we get for O=C(CN1C(C(=O)c2ccccc2)=C(O)c2ccccc2S1(=O)=O)Nc1cccc(OC(F)(F)F)c1 ?
Solution: category 2

###

experiment: Selectivity index, ratio of CC50 for African green monkey Vero cells infected with SARS-CoV-2 betaCoV/KOR/KCDC03/2020 to IC50 for SARS-CoV-2 betaCoV/KOR/KCDC03/2020
EXPERIMENTAL ENDPOINT: Ratio CC50/IC50
Give a plain numeric answer without units written out.

Problem: Can you look up the measured Ratio CC50/IC50 of O=C(CN1C(C(=O)c2cccc(F)c2)=C(O)c2ccccc2S1(=O)=O)Nc1cccc(OC(F)(F)F)c1 for me?
Solution: 2.3

###

test: Metabolic stability in monkey microsomes assessed as parent compound remaining incubated for 30 mins; assay type: ADME, Macaca mulatta, Microsome; conditions: rhesus monkey, read-out: Stabilty
EXPERIMENTAL ENDPOINT: remaining at 0.5 h (%)
Report the figure in % without appending any unit label.

Problem: Quick one: remaining at 0.5 h for O=C(CN1C(C(=O)c2ccc(F)c(Cl)c2)=C(O)c2ccc(F)cc2S1(=O)=O)Nc1ccc(C(F)(F)F)cc1 ?
Solution: 61

###

Form field: Ratio CC50/IC50 (one value per entry).
test: Selectivity index, ratio of CC50 for African green monkey Vero cells infected with SARS-CoV-2 betaCoV/KOR/KCDC03/2020 to IC50 for SARS-CoV-2 betaCoV/KOR/KCDC03/2020
# output: bare number, no unit

# example entries with known answers
>  <STRUCTURE AS SMILES>
CNc1ccc2c(c1)S(=O)(=O)N(CC(=O)Nc1ccc(C(F)(F)F)cc1)C(C(=O)c1ccc(F)c(Cl)c1)=C2O

>  <VALUE MEASURED>
1.3

$$$$
>  <STRUCTURE AS SMILES>
CCNC(=O)CN1C(C(=O)c2ccccc2)=C(O)c2ccccc2S1(=O)=O

>  <VALUE MEASURED>
1

$$$$
>  <STRUCTURE AS SMILES>
N#Cc1ccc(C(=O)C2=C(O)c3ccccc3S(=O)(=O)N2CC(=O)Nc2cccc(OC(F)(F)F)c2)cc1

>  <VALUE MEASURED>
1.6

$$$$
>  <STRUCTURE AS SMILES>
O=C(CN1C(C(=O)c2ccccc2)=C(O)c2ccccc2S1(=O)=O)NC1CCCCC1

>  <VALUE MEASURED>
1

$$$$
>  <STRUCTURE AS SMILES>
O=C(CN1C(C(=O)c2cccc(F)c2)=C(O)c2ccccc2S1(=O)=O)Nc1ccc(C(F)(F)F)cc1

>  <VALUE MEASURED>
3.2

$$$$
>  <STRUCTURE AS SMILES>
CC(C)C(=O)C1=C(O)c2ccccc2S(=O)(=O)N1CC(=O)Nc1ccc(C(F)(F)F)cc1

>  <VALUE MEASURED>
3

$$$$
>  <STRUCTURE AS SMILES>
O=C(CN1C(C(=O)c2cccc(Cl)c2)=C(O)c2ccccc2S1(=O)=O)Nc1cccc(OC(F)(F)F)c1

>  <VALUE MEASURED>
2.1

$$$$
>  <STRUCTURE AS SMILES>
O=C(CN1C(C(=O)c2ccc(F)cc2)=C(O)c2ccccc2S1(=O)=O)Nc1ccccc1Cl

>  <VALUE MEASURED>
1

$$$$

Problem: Looking for the measured Ratio CC50/IC50 of CC(C)C(=O)C1=C(O)c2ccccc2S(=O)(=O)N1CC(=O)Nc1cccc(OC(F)(F)F)c1 , can you help?
Solution: 1.9

Problem: Ok, now O=C(C1=C(O)c2ccccc2S(=O)(=O)N1Cc1ccccc1)c1ccccc1
Solution: 1

Problem: Subsequent entry: O=C(CN1C(C(=O)c2ccc(Cl)cc2)=C(O)c2ccccc2S1(=O)=O)Nc1cccc(OC(F)(F)F)c1
Solution: 2.9

###

target: hERG (KCNH2) (Homo sapiens); experiment: Inhibition of human ERG at 10 uM relative to control
Sequence (Q12809 whole entry): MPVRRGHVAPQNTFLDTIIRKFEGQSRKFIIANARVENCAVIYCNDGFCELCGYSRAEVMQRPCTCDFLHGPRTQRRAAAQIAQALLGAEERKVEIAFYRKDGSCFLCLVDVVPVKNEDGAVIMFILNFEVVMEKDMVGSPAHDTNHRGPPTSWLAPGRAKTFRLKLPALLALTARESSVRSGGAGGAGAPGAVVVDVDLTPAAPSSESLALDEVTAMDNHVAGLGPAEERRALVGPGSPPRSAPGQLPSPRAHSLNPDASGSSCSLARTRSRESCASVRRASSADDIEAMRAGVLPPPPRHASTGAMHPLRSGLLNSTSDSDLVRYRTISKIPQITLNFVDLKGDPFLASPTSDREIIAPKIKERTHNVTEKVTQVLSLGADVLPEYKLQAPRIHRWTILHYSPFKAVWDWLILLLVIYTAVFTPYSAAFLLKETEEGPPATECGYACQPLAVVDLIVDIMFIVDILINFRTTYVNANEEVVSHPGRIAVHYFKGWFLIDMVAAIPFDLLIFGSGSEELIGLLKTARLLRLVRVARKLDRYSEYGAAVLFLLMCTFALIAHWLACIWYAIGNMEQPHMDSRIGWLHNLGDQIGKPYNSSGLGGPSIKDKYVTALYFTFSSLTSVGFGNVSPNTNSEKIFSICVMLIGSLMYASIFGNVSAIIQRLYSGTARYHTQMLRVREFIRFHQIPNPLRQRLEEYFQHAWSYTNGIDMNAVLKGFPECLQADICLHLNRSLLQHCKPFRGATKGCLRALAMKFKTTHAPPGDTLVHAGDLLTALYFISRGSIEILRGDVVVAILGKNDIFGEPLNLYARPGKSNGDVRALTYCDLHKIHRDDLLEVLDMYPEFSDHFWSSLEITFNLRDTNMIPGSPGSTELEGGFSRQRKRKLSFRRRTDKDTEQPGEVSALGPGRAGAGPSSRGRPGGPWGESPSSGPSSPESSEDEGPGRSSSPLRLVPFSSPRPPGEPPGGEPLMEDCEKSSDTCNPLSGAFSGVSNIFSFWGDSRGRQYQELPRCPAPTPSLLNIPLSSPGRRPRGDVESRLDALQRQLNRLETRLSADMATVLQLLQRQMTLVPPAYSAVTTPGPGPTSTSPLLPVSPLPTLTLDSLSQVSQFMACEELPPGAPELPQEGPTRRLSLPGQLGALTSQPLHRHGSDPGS
EXPERIMENTAL ENDPOINT: inhibition at 10 µM

Problem: Requested field: inhibition at 10 µM. Item: O=C(CN1C(C(=O)c2ccc(F)c(Cl)c2)=C(O)c2ccc(F)cc2S1(=O)=O)Nc1ccc(C(F)(F)F)cc1
Solution: < 1%

###

Catalogue of Ratio CC50/IC50 values
assay: Selectivity index, ratio of CC50 for African green monkey Vero cells infected with SARS-CoV-2 betaCoV/KOR/KCDC03/2020 to IC50 for SARS-CoV-2 betaCoV/KOR/KCDC03/2020
Answer field: number only, no words.

// below: answered compounds
>  <COMPOUND>
O=C(CN1C(C(=O)c2ccc(F)cc2)=C(O)c2ccccc2S1(=O)=O)Nc1cccc(OC(F)(F)F)c1

>  <VALUE MEASURED>
2.7

$$$$
>  <COMPOUND>
O=C(CN1C(C(=O)c2ccc(F)c(Cl)c2)=C(O)c2ccccc2S1(=O)=O)Nc1cccc(OC(F)(F)F)c1

>  <VALUE MEASURED>
2.8

$$$$
>  <COMPOUND>
O=C(CN1C(C(=O)c2ccc(F)c(Cl)c2)=C(O)c2ccc(F)cc2S1(=O)=O)Nc1ccc(C(F)(F)F)cc1

>  <VALUE MEASURED>
30.7

$$$$
>  <COMPOUND>
N#Cc1cccc(C(=O)C2=C(O)c3ccccc3S(=O)(=O)N2CC(=O)c2ccc(F)c(Cl)c2)c1

>  <VALUE MEASURED>
1

$$$$
>  <COMPOUND>
CN1CCN(c2ccc3c(c2)S(=O)(=O)N(CC(=O)Nc2ccc(C(F)(F)F)cc2)C(C(=O)c2ccc(F)c(Cl)c2)=C3O)CC1

>  <VALUE MEASURED>
1.6

$$$$
>  <COMPOUND>
O=C(CN1C(C(=O)c2ccc(F)cc2)=C(O)c2ccccc2S1(=O)=O)Nc1ccc(C(F)(F)F)cc1

>  <VALUE MEASURED>
4.7

$$$$
>  <COMPOUND>
CCN(CC)CCCC(C)Nc1ccnc2cc(Cl)ccc12 (stereo unspecified)

>  <VALUE MEASURED>
3.1

$$$$
>  <COMPOUND>
O=C(O)/C=C/N1C(C(=O)c2ccc(F)c(Cl)c2)=C(O)c2ccccc2S1(=O)=O

>  <VALUE MEASURED>
1

$$$$

Problem: // Ratio CC50/IC50 lookup, key: N#Cc1cccc(C(=O)C2=C(O)c3ccccc3S(=O)(=O)N2CC(=O)Nc2ccc(C(F)(F)F)cc2)c1
Solution: 1.5

Problem: What would you report for O=C(CN1C(C(=O)c2ccc(F)cc2)=C(O)c2ccccc2S1(=O)=O)Nc1ccccc1 ?
Solution: 1

Problem: Item: N#Cc1ccc(C(=O)C2=C(O)c3ccccc3S(=O)(=O)N2CC(=O)Nc2ccc(C(F)(F)F)cc2)cc1
Solution: 1.4

###

test: Selectivity index, ratio of CC50 for African green monkey Vero cells infected with SARS-CoV-2 betaCoV/KOR/KCDC03/2020 to IC50 for SARS-CoV-2 betaCoV/KOR/KCDC03/2020
EXPERIMENTAL ENDPOINT: Ratio CC50/IC50
// print number alone

Use the examples below as a reference point.
>  <STRUCTURE AS SMILES>
O=C(CN1C(C(=O)c2cccc(Cl)c2)=C(O)c2ccccc2S1(=O)=O)Nc1ccc(C(F)(F)F)cc1

>  <Ratio CC50/IC50>
5.8

$$$$
>  <STRUCTURE AS SMILES>
O=C(CN1C(C(=O)c2ccc(F)c(Cl)c2)=C(O)c2ccc(F)cc2S1(=O)=O)Nc1cccc(OC(F)(F)F)c1

>  <Ratio CC50/IC50>
8.9

$$$$

Consider now this further compound.
Problem: // lookup Ratio CC50/IC50 for N#Cc1ccc(C(=O)C2=C(O)c3ccccc3S(=O)(=O)N2CC(=O)c2ccc(F)c(Cl)c2)cc1
Solution: 1
